target: Polymerase acidic protein (Influenza A virus (A/Puerto Rico/8/1934(H1N1))) (UniProt P03433)
reportedProperty: ΔTm (°C)

In [3]: df
Out[3]:
                                        mol  number
0  CC(C)c1ccccc1-c1cc(=O)c(O)c(C(=O)O)[nH]1    11.6
1  O=C(O)c1[nH]c(-c2ccccc2Oc2ccccc2)cc(=O)c1O    10.4
2  O=C(O)c1cccc(-c2cc(=O)c(O)c(C(=O)O)[nH]2)c1    11.7
3      Cc1ccccc1-c1cc(=O)c(O)c(C(=O)O)[nH]1    13.2
4     COc1ccccc1-c1cc(=O)c(O)c(C(=O)O)[nH]1    11.9
5  O=C(O)c1[nH]c(-c2ccc(Oc3ccccc3)cc2)cc(=O)c1O     8.1

----------
molecular target: Polymerase acidic protein (Influenza A virus (A/Puerto Rico/8/1934(H1N1)), UniProt P03433); test: Inhibition of Influenza A virus RNA-dependent RNA polymerase PA N-terminal endonuclease using [6-FAM]AATCGCAGGCAGCACTC[TAM] substrate and measured over 45 mins by fluorescence based assay; conditions: read-out: pIC50 (converted)
reportedProperty: IC50

>>> df
                                        mol     result
0  O=C(O)c1[nH]c(-c2ccc(-c3nnn[nH]3)cc2)cc(=O)c1O     < 2 nM
1  O=C(O)c1ccc(-c2cc(=O)c(O)c(C(=O)O)[nH]2)cc1     < 2 nM
2  O=C(O)c1[nH]c(-c2cccc(-c3nnn[nH]3)c2)cc(=O)c1O     < 2 nM
3  Cc1cc(C(=O)O)ccc1-c1cc(=O)c(O)c(C(=O)O)[nH]1   0.251 nM
4  Cc1cc(-c2noc(=O)[nH]2)ccc1-c1cc(=O)c(O)c(C(=O)O)[nH]1   0.126 nM
5  O=C(O)c1[nH]c(-c2ccccc2C(F)(F)F)cc(=O)c1O     < 2 nM
6  O=C(O)c1[nH]c(-c2ccc(-c3nnn[nH]3)cc2C(F)(F)F)cc(=O)c1O  0.0501 nM
7  Cc1cc(-c2nnn[nH]2)ccc1-c1cc(=O)c(O)c(C(=O)O)[nH]1     0.1 nM
8     CCc1ccccc1-c1cc(=O)c(O)c(C(=O)O)[nH]1     < 2 nM

----------
test: Antiviral activity against Influenza A virus (A/California/04/2009(H1N1)) ATCC VR-1737 infected in MDCK cells assessed as reduction in virus-induced cytopathic effect incubated for 48 hrs by Cell-titer-Glo luminescence assay; type: functional, cell-based; settings: ATCC VR-1737, MDCK
pEC50: −log10 of the molar value.
Use 5 as the dividing line for pEC50, with the line itself on the class 1 side and lower values as class 0.

                                   compound  classassignment
0  Cc1cc(-c2nnn[nH]2)ccc1-c1cc(=O)c(O)c(C(=O)O)[nH]1          class 0
1  O=C1c2c(O)c(=O)ccn2N([C@@H]2c3ccccc3SCc3c2ccc(F)c3F)[C@@H]2COCCN12 [BALOXAVIR]          class 1

----------
CC50 at 12 h values by entry
experiment: Cytotoxicity in MDCK cells assessed as reduction in cell viability incubated for 12 hrs by MTT assay; assay type: cell-based, Canis lupus familiaris; conditions: dog
reportedProperty: CC50 at 12 h

                                        mol    result
0  O=C(O)/C(O)=C/C(=O)C1(Cc2ccc(Cl)cc2)CCN(Cc2ccccc2)CC1  > 800 µM
1  O=C(O)c1[nH]c(-c2ccccc2C(F)(F)F)cc(=O)c1O  > 800 µM
2  Cc1cc(-c2nnn[nH]2)ccc1-c1cc(=O)c(O)c(C(=O)O)[nH]1  > 800 µM
3  O=C(O)c1[nH]c(-c2ccc(-c3nnn[nH]3)cc2)cc(=O)c1O  > 800 µM
4  O=C1c2c(O)c(=O)ccn2N([C@@H]2c3ccccc3SCc3c2ccc(F)c3F)[C@@H]2COCCN12     20 µM
5  O=C(O)c1[nH]c(-c2ccc(-c3nnn[nH]3)cc2C(F)(F)F)cc(=O)c1O  > 800 µM

Data provenance is ChEMBL document CHEMBL4334499.
